species on record: Rattus norvegicus; assay: Open TG-GATES - Regimen: Daily Repeat; assay type: toxicity, organism-based, Sprague-Dawley; set-up: regimen Daily Repeat, gender Male, age 6 weeks; conditions: in vivo, po, 0 mg/kg, […], tissue Plasma, route gavage, dose level Control, time 7 day
# TP annotations
Kindly report the value followed by its unit.

Known TP results, listed for orientation:
What value of TP has been reported for the following compound? CCOC(=O)C(C)(C)Oc1ccc(Cl)cc1 [CLOFIBRATE] 5.8 g/dL

What value of TP has been reported for the following compound? OCCN1CCN(CCCN2c3ccccc3Sc3ccc(C(F)(F)F)cc32)CC1 [FLUPHENAZINE] 5.9 g/dL

What value of TP has been reported for the following compound? C[C@H]1C(=O)O[C@@H]2CCN3CC=C(COC(=O)[C@](C)(O)[C@]1(C)O)[C@H]23 [MONOCROTALINE] 5.6 g/dL

What value of TP has been reported for the following compound? C[C@H]1O[C@H](O[C@H]2[C@H](O)[C@@H](O)[C@@H](O[C@H]3[C@H](O)[C@@H](O)C(O)O[C@@H]3CO)O[C@@H]2CO)[C@H](O)[C@@H](O)[C@@H]1N[C@H]1C=C(CO)[C@@H](O)[C@H](O)[C@H]1O (some centres undefined) [ACARBOSE] 5.8 g/dL

What value of TP has been reported for the following compound? C=C(C)[C@H]1Cc2c(ccc3c2O[C@@H]2COc4cc(OC)c(OC)cc4[C@@H]2C3=O)O1 [ROTENONE] 5.8 g/dL

What value of TP has been reported for the following compound? O=[N+]([O-])c1ccc(O)c([N+](=O)[O-])c1 [2,4-DINITROPHENOL] 5.5 g/dL

New cases:
What value of TP has been reported for the following compound? Cc1cccc(C)c1OCC(C)N (centres undefined) [MEXILETINE] 5.6 g/dL

What value of TP has been reported for the following compound? Cn1cc[nH]c1=S [METHIMAZOLE] 5.5 g/dL

What value of TP has been reported for the following compound? O=C1CN(/N=C/c2ccc([N+](=O)[O-])o2)C(=O)N1 [NITROFURANTOIN] 5.8 g/dL

---

species: Rattus norvegicus; assay: Open TG-GATES - Regimen: Daily Repeat; assay type: toxicity, organism-based, Sprague-Dawley; set-up: regimen Daily Repeat, gender Male, age 6 weeks; conditions: in vivo, po, 0 mg/kg, 72 h, tissue Plasma, route gavage, dose level Control, time 3 day
EXPERIMENTAL_ENDPOINT: Cl (meq/L)
Give the number; meq/L is assumed, so skip it.

What value of Cl has been reported for the following compound? C[C@H]1O[C@H](O[C@H]2[C@H](O)[C@@H](O)[C@@H](O[C@H]3[C@H](O)[C@@H](O)C(O)O[C@@H]3CO)O[C@@H]2CO)[C@H](O)[C@@H](O)[C@@H]1N[C@H]1C=C(CO)[C@@H](O)[C@H](O)[C@H]1O (some centres undefined) [ACARBOSE] 104.2

What value of Cl has been reported for the following compound? Cc1cccc(C)c1OCC(C)N (centres undefined) [MEXILETINE] 106

What value of Cl has been reported for the following compound? C=C(C)[C@H]1Cc2c(ccc3c2O[C@@H]2COc4cc(OC)c(OC)cc4[C@@H]2C3=O)O1 [ROTENONE] 104.2

What value of Cl has been reported for the following compound? CCOC(=O)C(C)(C)Oc1ccc(Cl)cc1 [CLOFIBRATE] 102

What value of Cl has been reported for the following compound? OCCN1CCN(CCCN2c3ccccc3Sc3ccc(C(F)(F)F)cc32)CC1 [FLUPHENAZINE] 104.5

What value of Cl has been reported for the following compound? O=[N+]([O-])c1ccc(O)c([N+](=O)[O-])c1 [2,4-DINITROPHENOL] 103.2

What value of Cl has been reported for the following compound? O=C1CN(/N=C/c2ccc([N+](=O)[O-])o2)C(=O)N1 [NITROFURANTOIN] 101

What value of Cl has been reported for the following compound? Cn1cc[nH]c1=S [METHIMAZOLE] 105.8

Turning to the following compound.
What value of Cl has been reported for the following compound? C[C@H]1C(=O)O[C@@H]2CCN3CC=C(COC(=O)[C@](C)(O)[C@]1(C)O)[C@H]23 [MONOCROTALINE] 105.6
